Test system: PC-12
Assay: Neuroprotective activity against H2O2-induced cytotoxicity in rat PC12 cells assessed as increase in cell viability pretreated for 24 hrs followed by H2O2 addition by MTT assay
Assay type: functional, cell-based
attribute_measured: EC50 (µg/mL)
// return numeric value only (unit: µg/mL, not printed)

Reference set (5 entries):
| query_smiles | tested_system | EC50 [µg/mL] |
| --- | --- | --- |
| Cc1c(-c2nnc(-c3ccc([N+](=O)[O-])cc3)o2)sc2ncnc(N3CCCCC3)c12 | PC-12 | 11.9 |
| Cc1c(-c2nnc(-c3ccc(Cl)cc3)o2)sc2ncnc(N3CCOCC3)c12 | PC-12 | 28.2 |
| Cc1c(-c2nnc(-c3ccccc3)o2)sc2ncnc(N3CCOCC3)c12 | PC-12 | 10.6 |
| Cc1ccc(-c2nnc(-c3sc4ncnc(N5CCOCC5)c4c3C)o2)cc1 | PC-12 | 26.6 |
| Cc1c(-c2nnc(-c3ccc(Cl)cc3)o2)sc2ncnc(N3CCCCC3)c12 | PC-12 | 21.8 |

Pending compound:
Fill blank: measured EC50 of the compound Cc1ccc(-c2nnc(-c3sc4ncnc(N5CCCCC5)c4c3C)o2)cc1 is ____.
28.2

###

Assay: Cytotoxicity against rat PC12 cells assessed as cell viability at MNTC after 24 hrs by MTT assay relative to control
Assay type: cell-based, PC-12
Settings: read-out: Activity
attribute_measured: viability at 24 h (%)
Value expressed in %; do not type the unit.

Examples with answers:
| query_smiles | units_label | viability at 24 h |
| --- | --- | --- |
| Cc1c(-c2nnc(-c3ccc(Cl)cc3)o2)sc2ncnc(N3CCCCC3)c12 | % | 98.2 |
| Cc1ccc(-c2nnc(-c3sc4ncnc(N5CCOCC5)c4c3C)o2)cc1 | % | 97.6 |

Would you mind telling me what viability at 24 h value was observed for Cc1c(-c2nnc(-c3ccccc3)o2)sc2ncnc(N3CCOCC3)c12 ?
99.5

Another: COc1cccc(N2CCN(CC#CCOC(=O)c3sc4ncnc(N5CCOCC5)c4c3C)CC2)c1
98.1

Ok, now Cc1c(-c2nnc(-c3ccc(Cl)cc3)o2)sc2ncnc(N3CCOCC3)c12
98.3

Lookup Cc1c(-c2nnc(-c3ccc([N+](=O)[O-])cc3)o2)sc2ncnc(N3CCCCC3)c12
99

Next entry: Cc1c(C(=O)OCC#CCN2CCN(c3cc(C4CC4)ccc3C#N)CC2)sc2ncnc(N3CCOCC3)c12
99.1

Thanks! And COc1ccc(N2CCN(CC#CCOC(=O)c3sc4ncnc(N5CCCCC5)c4c3C)CC2)cc1 ?
99.4

// same read-out, input: COc1ccc(-c2nnc(-c3sc4ncnc(N5CCOCC5)c4c3C)o2)cc1
98.3

Lookup Cc1c(C(=O)OCC#CCN2CCN(c3ccc(Br)cc3C#N)CC2)sc2ncnc(N3CCCCC3)c12
99.1

Now consider Cc1c(C(=O)OCC#CCN2CCN(c3cc(C4CC4)ccc3C#N)CC2)sc2ncnc(N3CCCCC3)c12 and answer again.
99.6

###

Catalogue of EC50 readings, one per entry.
Test system: PC-12
Test: Neuroprotective activity against H2O2-induced cytotoxicity in rat PC12 cells assessed as increase in cell viability pretreated for 24 hrs followed by H2O2 addition by MTT assay
Assay type: functional, cell-based
Only the number, expressed in µg/mL, is required.

Take a look at these entries with their results.
| query_smiles | reported_measurement |
| --- | --- |
| Cc1ccc(C#N)c(N2CCN(CC#CCOC(=O)c3sc4ncnc(N5CCOCC5)c4c3C)CC2)c1 | 41.3 |
| Cc1c(-c2nnc(-c3ccc([N+](=O)[O-])cc3)o2)sc2ncnc(N3CCOCC3)c12 | 16.2 |
| Cc1ccc(C#N)c(N2CCN(CC#CCOC(=O)c3sc4ncnc(N5CCCCC5)c4c3C)CC2)c1 | 38.2 |
| COc1ccc(-c2nnc(-c3sc4ncnc(N5CCOCC5)c4c3C)o2)cc1 | 28.2 |
| Cc1c(C(=O)OCC#CCN2CCN(c3cc(C4CC4)ccc3C#N)CC2)sc2ncnc(N3CCCCC3)c12 | 16.2 |

Now for another entry.
Any idea what its EC50 is? The molecule is COc1cccc(N2CCN(CC#CCOC(=O)c3sc4ncnc(N5CCCCC5)c4c3C)CC2)c1
40.4

###

Assay: Cytotoxicity against rat PC12 cells after 24 hrs by MTT assay
Assay type: cell-based, PC-12
Conditions: read-out: MNCC
Listed next: entries and their corresponding MNTC at 24 h.

# count of solved cases: 5
| query_smiles | MNTC at 24 h |
| --- | --- |
| COc1cccc(N2CCN(CC#CCOC(=O)c3sc4ncnc(N5CCOCC5)c4c3C)CC2)c1 | 114 µg/mL |
| Cc1c(-c2nnc(-c3ccc(Cl)cc3)o2)sc2ncnc(N3CCOCC3)c12 | 120 µg/mL |
| COc1ccc(N2CCN(CC#CCOC(=O)c3sc4ncnc(N5CCCCC5)c4c3C)CC2)cc1 | 80 µg/mL |
| COc1ccc(N2CCN(CC#CCOC(=O)c3sc4ncnc(N5CCOCC5)c4c3C)CC2)cc1 | 60 µg/mL |
| Cc1c(C(=O)OCC#CCN2CCN(c3ccc(Br)cc3C#N)CC2)sc2ncnc(N3CCCCC3)c12 | 96 µg/mL |

What value of MNTC at 24 h has been reported for the following molecule? Cc1c(C(=O)OCC#CCN2CCN(c3cc(C4CC4)ccc3C#N)CC2)sc2ncnc(N3CCCCC3)c12
110 µg/mL

Also check Cc1ccc(-c2nnc(-c3sc4ncnc(N5CCOCC5)c4c3C)o2)cc1
68 µg/mL

Cool, now Cc1ccc(C#N)c(N2CCN(CC#CCOC(=O)c3sc4ncnc(N5CCOCC5)c4c3C)CC2)c1
118 µg/mL

# repeat for Cc1ccc(C#N)c(N2CCN(CC#CCOC(=O)c3sc4ncnc(N5CCCCC5)c4c3C)CC2)c1
96 µg/mL

###

Experiment: Cytotoxicity against rat PC12 cells after 24 hrs by MTT assay
Type: cell-based, PC-12
attribute_measured: CC50 at 24 h (µg/mL)
Number in µg/mL, nothing else.

Recorded CC50 at 24 h, per entry:
| query_smiles | reported_measurement |
| --- | --- |
| Cc1c(-c2nnc(-c3ccccc3)o2)sc2ncnc(N3CCOCC3)c12 | 200 |
| Cc1c(-c2nnc(-c3ccc(Cl)cc3)o2)sc2ncnc(N3CCOCC3)c12 | 168 |
| Cc1ccc(-c2nnc(-c3sc4ncnc(N5CCCCC5)c4c3C)o2)cc1 | 161 |
| Cc1c(-c2nnc(-c3ccc([N+](=O)[O-])cc3)o2)sc2ncnc(N3CCOCC3)c12 | 94.2 |
| COc1ccc(-c2nnc(-c3sc4ncnc(N5CCCCC5)c4c3C)o2)cc1 | 124 |

Reported CC50 at 24 h, compound Cc1ccc(C#N)c(N2CCN(CC#CCOC(=O)c3sc4ncnc(N5CCOCC5)c4c3C)CC2)c1 : ____
146

Quick one: Cc1c(C(=O)OCC#CCN2CCN(c3ccc(Br)cc3C#N)CC2)sc2ncnc(N3CCCCC3)c12
136

Now this one: Cc1c(C(=O)OCC#CCN2CCN(c3cc(C4CC4)ccc3C#N)CC2)sc2ncnc(N3CCOCC3)c12
198

Now the compound Cc1ccc(C#N)c(N2CCN(CC#CCOC(=O)c3sc4ncnc(N5CCCCC5)c4c3C)CC2)c1
114

###

The following compounds are listed with their measured viability at 24 h values.
Test: Cytotoxicity against rat PC12 cells assessed as cell viability at MNTC after 24 hrs by MTT assay relative to control
Format: cell-based, PC-12
Details: read-out: Activity
Please respond with the number in % and leave the unit unwritten.

Sample answers from the record:
| query_smiles | units_label | viability at 24 h |
| --- | --- | --- |
| COc1ccc(-c2nnc(-c3sc4ncnc(N5CCCCC5)c4c3C)o2)cc1 | % | 99 |
| Cc1c(-c2nnc(-c3ccc([N+](=O)[O-])cc3)o2)sc2ncnc(N3CCOCC3)c12 | % | 99.2 |
| Cc1ccc(-c2nnc(-c3sc4ncnc(N5CCCCC5)c4c3C)o2)cc1 | % | 99.5 |
| COc1ccc(N2CCN(CC#CCOC(=O)c3sc4ncnc(N5CCOCC5)c4c3C)CC2)cc1 | % | 98.1 |
| Cc1ccc(C#N)c(N2CCN(CC#CCOC(=O)c3sc4ncnc(N5CCCCC5)c4c3C)CC2)c1 | % | 98.2 |

Consider the compound Cc1c(C(=O)OCC#CCN2CCN(c3ccc(Br)cc3C#N)CC2)sc2ncnc(N3CCOCC3)c12 and give its measured viability at 24 h.
99.6

Could you do the same for Cc1ccc(C#N)c(N2CCN(CC#CCOC(=O)c3sc4ncnc(N5CCOCC5)c4c3C)CC2)c1 , please?
98.5

Note, next up: Cc1c(-c2nnc(-c3ccccc3)o2)sc2ncnc(N3CCCCC3)c12
99.2

Quick one: COc1cccc(N2CCN(CC#CCOC(=O)c3sc4ncnc(N5CCCCC5)c4c3C)CC2)c1
98.2
